Numbers sourced from paper PMC5540273.

# Test system: ALK
# recordedConditions: concentration: 1 μM, replicates: in singlicate; n = 1;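 also: KINOMEscan kinase panel screen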
Listed next: entries and their corresponding %Inh.
Use % as the unit, but write only the number.

molecule	unitsText	quantitativeReadout
Cn1c(=O)c(F)c(Nc2ccc(I)cc2F)c2c(=O)n(OC[C@H](O)CO)cnc21	%	0
CCC(=O)c1c(-c2ccccc2)c2cc(Cl)ccc2c(=O)n1Cc1ccc(C(=O)O)cc1	%	0
COc1cc2ncn(-c3cc(OCc4ccc(S(C)(=O)=O)cc4)c(C(N)=O)s3)c2cc1OC	%	26
CCC(=O)c1c(-c2ccccc2)c2cc(Cl)ccc2c(=O)n1Cc1cc(C(=O)NC2CC2)n(C)n1	%	32
CN1C(=O)C(Nc2cc(Cl)c(O)c(Cl)c2)=C(c2ccc(Cl)cc2)C1=O	%	48

IN: Bench note: what %Inh did `Nc1nccc2scc(-c3ccc4c(c3)CCN4C(=O)Cc3ccccc3)c12` show?
OUT: 0

IN: Bench note: what %Inh did `COc1cc2ncn(-c3cc(OCc4ccncc4)c(C(N)=O)s3)c2cc1OC` show?
OUT: 20

IN: Bench note: what %Inh did `O=C1NC(=O)C(c2ccccc2)=C1Nc1cccc(O)c1` show?
OUT: 0

* * *

# Tested on: TGFBR1
# recordedConditions: concentration: 1 μM, replicates: in singlicate; n = 1
Binarize %Inh at 4%; below is met, at or above is not met.

compound	answerLabel
C[C@@H]1CC[C@H](C(=O)NC2CCCCC2)CN1c1cc(-c2ccc3c(N)n[nH]c3c2)nc(N)n1	not met
COc1ccc(-n2cnc3c(N)ncnc32)cc1	met
Cc1ccc(-c2ccc3c(ccc4sc5c(c43)NC[C@@H](C)N=C5N(C)C)n2)cn1	met
COc1ccc(CNC(=O)NC2CCN(c3ccnc(Nc4ccc(F)cc4)n3)C2)cc1 (stereo not drawn)	not met

IN: is_below(%Inh, 4%) for `COc1ccc(-c2cc3c(C)nc(N)nc3n([C@H]3CC[C@H](OCCO)CC3)c2=O)cn1` ?
OUT: met

IN: is_below(%Inh, 4%) for `Cl.NS(=O)(=O)c1cccc(Nc2cc(-c3ccc(F)cc3)n[nH]2)c1` ?
OUT: not met

IN: is_below(%Inh, 4%) for `COc1cc2ncn(-c3cc(OCc4ccncc4)c(C(N)=O)s3)c2cc1OC` ?
OUT: not met

IN: is_below(%Inh, 4%) for `Nc1n[nH]c2nnc(-c3ccccc3)c(-c3ccccc3)c12` ?
OUT: not met

IN: is_below(%Inh, 4%) for `CCC(=O)c1c(-c2ccccc2)c2cc(Cl)ccc2c(=O)n1Cc1ccc(C(=O)O)cc1` ?
OUT: not met

IN: is_below(%Inh, 4%) for `COc1cccc(C2=C(N(C)c3ccccc3)C(=O)NC2=O)c1` ?
OUT: not met

IN: is_below(%Inh, 4%) for `COc1cc2ncn(-c3cc(OCc4ccc(S(C)(=O)=O)cc4)c(C(N)=O)s3)c2cc1OC` ?
OUT: met

IN: is_below(%Inh, 4%) for `Nc1nccc2scc(-c3ccc4c(c3)CCN4C(=O)Cc3ccccc3)c12` ?
OUT: not met

IN: is_below(%Inh, 4%) for `Nc1n[nH]c2ncc(-c3ccccc3)cc12` ?
OUT: met

IN: is_below(%Inh, 4%) for COc1ccc(Nc2nccc(N3CCC(NS(=O)(=O)c4ccc(NC(C)=O)cc4)C3)n2)cc1 (stereo not drawn) ?
OUT: not met

IN: is_below(%Inh, 4%) for `Nc1nc(-c2ccccc2F)c(-c2ccnc3ccccc23)s1` ?
OUT: not met

IN: is_below(%Inh, 4%) for `CCC(=O)c1c(-c2ccccc2)c2cc(Cl)ccc2c(=O)n1Cc1cc(S(C)(=O)=O)n(CCC(C)(C)O)n1` ?
OUT: not met

IN: is_below(%Inh, 4%) for `Cc1nc(N(C)[C@H]2CN(C(=O)CC#N)CC[C@H]2C)c2cc[nH]c2n1` ?
OUT: met
